Every entry's value here was drawn from patent US20130012466A1.

# Tested on: NCI-H460
# MEASUREMENT_PROTOCOL: Cytotoxicity assay (cell titer-glo and calcein AM), NCI-H460
# CONDITION_DESCRIPTION: read-out: Cytotoxicity IC50, NCI-H460, calcein; NCI-H460; calcein AM readout; % error in parentheses
PROPERTY: pIC50
Just the number, please; pIC50 means minus log10 of the concentration in mol/L.

COc1cc2c(c(OC)c1OC)-c1ccc(OC)c(=O)cc1[C@@H](NC(=O)CN(OC)[C@@H]1O[C@H](CN=[N+]=[N-])[C@H](O)[C@H](O)[C@H]1O)CC2 [Col43, 6-deoxy-6-azido-D-galactoside] :: 5.63
COc1cc2c(c(OC)c1OC)-c1ccc(OC)c(=O)cc1C(NC(=O)CN(OC)C1OCC(O)C(O)C1O)CC2 [Col22, L-riboside] :: 5.70
CCCCCCCCCC(=O)NC[C@H]1O[C@@H](N(CC(=O)N[C@H]2CCc3cc(OC)c(OC)c(OC)c3-c3ccc(OC)c(=O)cc32)OC)[C@H](O)[C@@H](O)[C@@H]1O [Col59, 6-deoxy-6-N-decanoyl-D-glucosaminoside] :: 5.28

What does the data say about its pIC50? Entry: COc1cc2c(c(OC)c1OC)-c1ccc(OC)c(=O)cc1[C@@H](NC(=O)CN(OC)[C@@H]1O[C@H](CO)[C@@H](O[C@H]3O[C@H](CO)[C@@H](O)[C@H](O)[C@H]3O)[C@H](O)[C@H]1O)CC2 [Col38, D-maltoside]
6.31

Another compound: COc1cc2c(c(OC)c1OC)-c1ccc(OC)c(=O)cc1C(NC(=O)CN(OC)C1CC(O)C(O)C(C)O1)CC2 [Col65, D-Digitoxoside]
6.13

----------
# Test system: A549
# MEASUREMENT_PROTOCOL: Cytotoxicity assay (cell titer-glo and calcein AM), A549
# CONDITION_DESCRIPTION: read-out: Cytotoxicity IC50, A549, CTG; A549; CTG (cell titer-glo) readout; % error in parentheses
PROPERTY: IC50 (nM)
Give a bare numeral; the unit nM is implied.

COc1cc2c(c(OC)c1OC)-c1ccc(OC)c(=O)cc1[C@@H](NC(=O)CN(OC)[C@@H]1O[C@H](CO)[C@@H](O)[C@H](O)[C@H]1F)CC2 [Col34, 2-fluoro-2-deoxy-D-glucoside] :: 545

Pending compound:
Recorded IC50 of COc1cc2c(c(OC)c1OC)-c1ccc(OC)c(=O)cc1[C@@H](NC(=O)CN(OC)[C@@H]1O[C@H](CO)[C@@H](N=[N+]=[N-])[C@H](O)[C@H]1O)CC2 [Col44, 4-deoxy-4-azido-D-glucoside] , please.
315

----------
# Test system: HCT-116
# MEASUREMENT_PROTOCOL: Cytotoxicity assay (cell titer-glo and calcein AM), HCT-116
# CONDITION_DESCRIPTION: read-out: Cytotoxicity IC50, HCT-116, calcein; HCT-116; calcein AM readout; % error in parentheses
PROPERTY: IC50 (nM)
Value expressed in nM; do not type the unit.

For the molecule shown here, COc1cc2c(c(OC)c1OC)-c1ccc(OC)c(=O)cc1C(NC(=O)CN(OC)C1CC(O)C(O)C(C)O1)CC2 [Col65, D-Digitoxoside] , give the reported IC50.
897

----------
# System: MCF7
# MEASUREMENT_PROTOCOL: Cytotoxicity assay (cell titer-glo and calcein AM), MCF7
# CONDITION_DESCRIPTION: read-out: Cytotoxicity IC50, MCF7, calcein, calcein AM readout, % error in parentheses
Reported IC50 values are given for each entry in this list.
Just the number in µM, nothing appended.

The examples below pair each entry with its known result.
COc1cc2c(c(OC)c1OC)-c1ccc(OC)c(=O)cc1[C@@H](NC(=O)CN(OC)[C@@H]1O[C@H](CO)[C@H](O)[C@H](O)[C@H]1NC(C)=O)CC2 [Col28, N-acetyl-D-galactosaminoside] :: 6.67
CCCCCCCCCC(=O)NC[C@H]1O[C@@H](N(CC(=O)N[C@H]2CCc3cc(OC)c(OC)c(OC)c3-c3ccc(OC)c(=O)cc32)OC)[C@H](O)[C@@H](O)[C@@H]1O [Col59, 6-deoxy-6-N-decanoyl-D-glucosaminoside] :: 6.19

// below: IC50 requested for another compound
Form: Entry = COc1cc2c(c(OC)c1OC)-c1ccc(OC)c(=O)cc1[C@@H](NC(=O)CN(OC)[C@H]1C[C@@H](O)[C@H](O)[C@@H](CO)O1)CC2 [Col16, 2-deoxy-D-glucoside] | System = MCF7 | IC50 = ____
1.92

----------
# System: mouse mammary normal epithelial control cell line
# MEASUREMENT_PROTOCOL: Cytotoxicity assay, normal control cell line
# CONDITION_DESCRIPTION: read-out: Cytotoxicity IC50, NmuMG, CTG, CTG (cell titer-glo) readout, % error in parentheses
PROPERTY: IC50

Past entries and their recorded results:
COc1cc2c(c(OC)c1OC)-c1ccc(OC)c(=O)cc1C(NC(=O)CN(OC)C1OC(COCc3ccccc3)C(OCc3ccccc3)C1OCc1ccccc1)CC2 (stereo not drawn) [Col53] :: 0.12 µM
CCCCCCCCCC(=O)NC[C@H]1O[C@@H](N(CC(=O)N[C@H]2CCc3cc(OC)c(OC)c(OC)c3-c3ccc(OC)c(=O)cc32)OC)[C@H](O)[C@@H](O)[C@@H]1O [Col59, 6-deoxy-6-N-decanoyl-D-glucosaminoside] :: > 10 µM
COc1cc2c(c(OC)c1OC)-c1ccc(OC)c(=O)cc1C(NC(=O)CN(OC)C1OCC(O)C(O)C1O)CC2 [Col25, L-arabinoside] :: 5.7 µM

Need IC50, item COc1cc2c(c(OC)c1OC)-c1ccc(OC)c(=O)cc1[C@@H](NC(=O)CN(OC)[C@@H]1O[C@H](C)[C@H](O)[C@H](O)[C@H]1O)CC2 [Col9, D-fucoside]
> 10 µM

// next record COc1cc2c(c(OC)c1OC)-c1ccc(OC)c(=O)cc1C(NC(=O)CN(OC)C1OCC(O)C(O)C1O)CC2 [Col7, L-lyxoside]
> 10 µM

Then COc1cc2c(c(OC)c1OC)-c1ccc(OC)c(=O)cc1C(NC(=O)CN(OC)C1OC(C)C(O)C(O)C1O)CC2 [Col14, L-fucoside] ?
> 10 µM

----------
The entries below come with measured pIC50 values attached.
# System: Du145
# MEASUREMENT_PROTOCOL: Cytotoxicity assay (cell titer-glo and calcein AM), Du145
# CONDITION_DESCRIPTION: read-out: Cytotoxicity IC50, Du145, CTG; Du145; CTG (cell titer-glo) readout; % error in parentheses
Friendly reminder that pIC50 comes from taking -log10 of the concentration in mol/L.

COc1cc2c(c(OC)c1OC)-c1ccc(OC)c(=O)cc1C(NC(=O)CN(OC)C1CC(O)C(O)C(C)O1)CC2 [Col65, D-Digitoxoside] :: 6.07

Here's the next entry for you.
Which pIC50 is reported for this molecule? COc1cc2c(c(OC)c1OC)-c1ccc(OC)c(=O)cc1[C@@H](NC(=O)CN(OC)[C@@H]1O[C@H](CO)[C@@H](O[C@H]3O[C@H](CO)[C@@H](O)[C@H](O)[C@H]3O)[C@H](O)[C@H]1O)CC2 [Col38, D-maltoside]
6.67

----------
# Tested on: mouse mammary normal epithelial control cell line
# MEASUREMENT_PROTOCOL: Cytotoxicity assay, normal control cell line
# CONDITION_DESCRIPTION: read-out: Cytotoxicity IC50, NmuMG, CTG, CTG (cell titer-glo) readout, % error in parentheses
pIC50: −log10 of the molar value.
PROPERTY: pIC50

Answered cases to consult:
COc1cc2c(c(OC)c1OC)-c1ccc(OC)c(=O)cc1C(NC(=O)CN(OC)C1OCC(O)C(O)C1O)CC2 [Col20, D-arabinoside] :: < 5.00
CCCCCCCCCC(=O)N[C@@H]1[C@@H](O)[C@H](N(CC(=O)N[C@H]2CCc3cc(OC)c(OC)c(OC)c3-c3ccc(OC)c(=O)cc32)OC)O[C@H](CO)[C@H]1O [Col60, 3-deoxy-3-N-decanoyl-D-glucosaminoside] :: 5.08

So what does the record say about pIC50 for COc1cc2c(c(OC)c1OC)-c1ccc(OC)c(=O)cc1C(NC(=O)CN(OC)C1OCC(O)C(O)C1O)CC2 [Col17, L-xyloside] ?
< 5.00

----------
# System: Hep3B
# MEASUREMENT_PROTOCOL: Cytotoxicity assay (cell titer-glo and calcein AM), Hep3B
# CONDITION_DESCRIPTION: read-out: Cytotoxicity IC50, Hep 3B, calcein; Hep 3B; calcein AM readout; % error in parentheses
PROPERTY: IC50 (µM)
Only the number, expressed in µM, is required.

COc1cc2c(c(OC)c1OC)-c1ccc(OC)c(=O)cc1C(NC(=O)CN(OC)C1OCC(O)C(O)C1O)CC2 [Col7, L-lyxoside] :: 4.74

Given COc1cc2c(c(OC)c1OC)-c1ccc(OC)c(=O)cc1[C@@H](NC(=O)CN(OC)[C@@H]1O[C@H](CCl)[C@H](O)[C@H](O)[C@H]1O)CC2 [Col41, 6-deoxy-6-chloro-D-galactoside] , state its recorded IC50.
5.99

Then this molecule: COc1cc2c(c(OC)c1OC)-c1ccc(OC)c(=O)cc1[C@@H](NC(=O)CN(OC)[C@@H]1O[C@H](CF)[C@@H](O)[C@H](O)[C@H]1O)CC2 [Col54, 6-deoxy-6-fluoro-D-glucoside]
4.66
